Each entry below lists one item and its recorded apparent Kd (screen) value.
Molecular target: T1, TNFR1 (Homo sapiens, UniProt P19438)
T1 chain: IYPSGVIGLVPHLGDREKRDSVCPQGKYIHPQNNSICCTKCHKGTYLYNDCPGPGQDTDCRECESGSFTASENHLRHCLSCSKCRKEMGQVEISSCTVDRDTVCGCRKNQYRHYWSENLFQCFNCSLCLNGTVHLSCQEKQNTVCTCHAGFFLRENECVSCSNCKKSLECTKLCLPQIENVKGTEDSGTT
Assay: yeast display SC50
Report as a plain number; the unit nM is understood.

- S51T (designed binder) MTLQELLREEALRRAEAEAFRYALELLAEKFPEQKEYLLDLAEEIESQIRTLSGVDVEDVRKFLDKEWAWVKELLAEHPAELAEVEAARAARLAELRAEVEAKVAA: 0.405
- E33C (designed binder) MTLQELLREEALRRAEAEAFRYALELLAEKFPCQKEYLLDLAEEIESQIRSLSGVDVEDVRKFLDKEWAWVKELLAEHPAELAEVEAARAARLAELRAEVEAKVAA: 0.593
- E46L (designed binder) MTLQELLREEALRRAEAEAFRYALELLAEKFPEQKEYLLDLAEEILSQIRSLSGVDVEDVRKFLDKEWAWVKELLAEHPAELAEVEAARAARLAELRAEVEAKVAA: 0.539

Okay, now this binder:
Task item: Given the binder P32C (designed binder) MTLQELLREEALRRAEAEAFRYALELLAEKFCEQKEYLLDLAEEIESQIRSLSGVDVEDVRKFLDKEWAWVKELLAEHPAELAEVEAARAARLAELRAEVEAKVAA , what is its reported apparent Kd (screen)?
Reply: 0.539
